test system: P. falciparum stage V gametocytes; set-up: BacTiter-Glo ATP luminescence viability of purified stage V gametocytes in 384-well plates, per cent inhibition versus DMSO; conditions: 48 h, 5 µM; inhibitor
The whole screen tested about 13,000 compounds, of which about 3,200 (25%) showed an effect of 50% or more. Some of the results follow.
Task for the reader: assign each of the following molecules its reported % Inhibition.
Write it as a number; the unit % goes unstated.

Asked: Please report the recorded % Inhibition for O=C(Nc1ccc2c(c1)CCN2C1CCN(Cc2csc3ccccc23)C1)c1ccco1 (stereo not shown) [TCMDC-135069] .
Given back: 39.32

Asked: What value of % Inhibition has been reported for the following molecule? COc1ccc(-c2ccccc2CNC2Cc3ccccc3C2)cc1S(=O)(=O)NCCN1CCCC1 [TCMDC-132211]
Given back: 56.67

Asked: Requested field: % Inhibition. Item: Cc1cc(CNC(=O)[C@H](CC2CCCCC2)Nc2ccc(C#N)c3ccccc23)c(C(F)(F)F)o1 [TCMDC-136628]
Given back: -91.12

Asked: For the molecule CCCC(C)Nc1nc(C)cc(N[C@@H](CC(C)C)C(=O)NCc2cccc(F)c2)n1 (stereo partly shown) [TCMDC-134768] , what % Inhibition is on record?
Given back: -55.2

Asked: Look at this molecule and give its reported % Inhibition. COC(=O)c1ccccc1N1CCN(CCCCNC(=O)c2ccc(NC(=O)c3cc(Cl)cc(Cl)c3)cc2)CC1 [TCMDC-138235]
Given back: 7.414

Asked: Please look up its % Inhibition: Cc1ccc(C(=O)Nc2ccc(F)c(F)c2F)cc1S(=O)(=O)N1CCCCC1 [TCMDC-124324]
Given back: 19.7

Asked: Need % Inhibition, item COc1ccc(CC2(c3ccc(F)cc3)N=C(N)N(CCCc3ccc4c(c3)OCO4)C2=O)cc1 (stereo not shown) [TCMDC-136540]
Given back: -15.69

Asked: Entry under review: Cc1cccc(CNc2nc(C)cc(N[C@@H](Cc3ccccc3)C(=O)NCc3cccc(F)c3)n2)c1 [TCMDC-134887] . Reported % Inhibition?
Given back: 21.53

Asked: Tell me the measured % Inhibition of COc1ccccc1CCNc1nc(C)cc(N[C@@H](CC(C)C)C(=O)NCc2cccc(F)c2)n1 [TCMDC-134863] , please.
Given back: 80.77

Asked: # % Inhibition lookup, item CCN(CCCN1CCCCC1)c1cc(C)nc(Nc2ccc(Oc3ccccc3)cc2)n1 [TCMDC-132426]
Given back: 49.81

Asked: Look up % Inhibition for this molecule: Cc1cc(N[C@@H](Cc2ccccc2)C(=O)NCc2cccc(F)c2)nc(NCC2CCCCC2)n1 [TCMDC-134928]
Given back: 5.769

Asked: For COc1ccc(CNC2Cc3ccccc3C2)cc1-c1ccc(S(=O)(=O)NCCN2CCCC2)c(F)c1 [TCMDC-132266] , what is its reported % Inhibition?
Given back: 84.74

Asked: Tell me the measured % Inhibition of COc1ccc(NC(=O)Nc2nc3ccccc3s2)cc1N1CCN(C)CC1 [TCMDC-139872] , please.
Given back: -6.741

Asked: What value of measured % Inhibition is listed for Cc1cc(N[C@@H](Cc2ccccc2)C(=O)NCc2cccc(F)c2)nc(NCc2ccccc2C)n1 [TCMDC-134903] ?
Given back: -28.89

Asked: Sample COc1ccccc1CCNc1nc(C)cc(N[C@@H](Cc2ccccc2)C(=O)NCc2cccc(F)c2)n1 [TCMDC-134893] — what was its % Inhibition?
Given back: 92.55

Asked: % Inhibition for COC(=O)c1ccc(NC(=O)c2ccc(CCN3CCC(c4nc(COCC(F)(F)F)c(-c5ccc(F)cc5)o4)CC3)cc2)cc1 [TCMDC-138133] ?
Given back: -17.07
